Source: patent US10981932B2

# System: SUDHL10
pIC50: −log10 of the molar value.
Assay readout: pIC50

CN1CCCn2c(C(=O)O)c(CCCOc3cccc4ccccc34)c3cccc(c32)-c2c(CCN3CCOCC3)nn(C)c2C1 (single isomer, unassigned; enantiomer 2) [Example 126] | < 4.48

**Query** Record lookup: for SUDHL10, what pIC50 belongs to Cc1c2c(nn1CC(F)(F)F)COCCCCn1c(C(=O)O)c(CCCOc3cccc4ccccc34)c3cccc-2c31 [Example 242] ?
**Result** < 4.48

**Query** Record lookup: for SUDHL10, what pIC50 belongs to Cn1nc(CN2CCOCC2)c2c1COCCCn1c(C(=O)O)c(CCCOc3cccc4ccccc34)c3cccc-2c31 (single isomer, unassigned; enantiomer 1) [Example 139] ?
**Result** < 4.48

====

Collected IC50 values appear next to each entry.
# System: OPM2
# Experimental protocol: Anti-proliferative effect (CellTiter-Glo, 72 h), OPM2
# Assay type: cell-based
# Assay context: Homo sapiens, OPM-2, 72 h, OPM2 cells, median, read-out: IC50 antiproliferation assay OPM2 [M] (median)

Example entries begin here.
Cc1nn(C)c2c1-c1cccc3c(CCCOc4cccc5ccccc45)c(C(=O)O)n(c13)CCCCOC2 (racemic) [Example 1-33] | 2.23e-05 M
Cc1ccc2cc1-c1cccc3c(CCCOc4cccc5ccccc45)c(C(=O)O)n(c13)CCOCCO2 (racemic) [Example 117] | > 3.3e-05 M

**Query** State the recorded IC50 for this entry: Cc1c2c(nn1C)CN(C)CCCn1c(C(=O)O)c(CCCOc3cccc4ccccc34)c3cccc-2c31 (single isomer, unassigned; enantiomer 1) [Example 1-34]
**Result** 2.69e-05 M

**Query** State the recorded IC50 for this entry: Cc1ccc2c(CCCOc3cccc4ccccc34)c(C(=O)O)n3c2c1-c1c(nn(C)c1C)CN(C)CCC3 (racemic) [Example 072]
**Result** 8.23e-06 M

====

# Tested on: A2780
# Experimental protocol: Anti-proliferative effect (CellTiter-Glo, 72 h), A2780
# Format: cell-based
# Assay context: A2780 cells, median, read-out: IC50 antiproliferation assay A2780 [M] (median)
Assay readout: IC50 (M)
Report only the number, with the unit M understood.

Example entries begin here.
Cc1nn(C)c2c1-c1cccc3c(CCCOc4cccc5cc(Cl)ccc45)c(C(=O)O)n(c13)CCCCOC2 (single isomer, unassigned; enantiomer 2) [Example 042] | 1.02e-05
Cn1nc(CN2CCCCC2=O)c2c1COCCCCn1c(C(=O)O)c(CCCOc3cccc4ccccc34)c3cccc-2c31 (single isomer, unassigned; enantiomer 2) [Example 327] | 3.12e-05
Cn1nc(CN2CC3(COC3)C2)c2c1COCCCCn1c(C(=O)O)c(CCCOc3cccc4ccccc34)c3cccc-2c31 (single isomer, unassigned; enantiomer 2) [Example 345] | 1.59e-05

**Query** State the recorded IC50 for this entry: CCc1nn(C)c2c1-c1cccc3c(CCCOc4cccc5cc(C(F)(F)F)ccc45)c(C(=O)O)n(c13)CCCCOC2 (racemic) [Example 313]
**Result** 1.05e-05

====

# System: SUDHL10
# Experimental protocol: Induction of caspase-3/7 activity (Caspase-Glo 3/7), SUDHL10
# Assay type: cell-based
# Assay context: Homo sapiens, SU-DHL10, 3 h, caspase-3/7 induction, SUDHL10 cells, 3 h treatment; median
Assay readout: EC50

Cc1ccc2c(C(C)CCOc3cccc4ccccc34)c(C(=O)O)n3c2c1-c1c(nn(C)c1C)COCCCC3 (racemic) | > 33 µM
CN1CCN(c2ccc(OCc3nn(C)c4c3-c3cccc5c(CCCOc6cccc7ccccc67)c(C(=O)O)n(c35)CCCCOC4)cc2)CC1 (racemic) | > 33 µM
CCc1nn(C)c2c1-c1cccc3c(CCCOc4cccc5c(F)cccc45)c(C(=O)O)n(c13)CCCCOC2 (single isomer, unassigned) [Example 299] | > 33 µM
Cc1ccc2c(CCCOc3cccc4cc(F)ccc34)c(C(=O)O)n3c2c1-c1c(nn(CCN2CCOCC2)c1C)COCCCC3 (racemic) | 1.21 µM
CC(=O)N1CCN(c2ccc(OCc3nn(C)c4c3-c3cccc5c(CCCOc6cccc7ccccc67)c(C(=O)O)n(c35)CCCCOC4)cc2)CC1 (racemic) | 6.61 µM
Cc1nn(C)c2c1-c1cccc3c(CCCOc4cccc5c(Cl)cccc45)c(C(=O)O)n(c13)CCCCOC2 (racemic) | > 33 µM
Cc1c2c(nn1C)COCCCCn1c(C(=O)O)c(CCCOc3cccc4cc(C(F)(F)F)ccc34)c3cccc-2c31 (single isomer, unassigned; enantiomer 1) [Example 311] | > 33 µM
Cn1nc2c(c1CN1CCOCC1)-c1cccc3c(CCCOc4cccc5ccccc45)c(C(=O)O)n(c13)CCCCOC2 (racemic) | > 33 µM

**Query** State the recorded EC50 for this entry: Cc1nn(CC(F)(F)F)c2c1-c1cccc3c(CCCOc4cccc5ccccc45)c(C(=O)O)n(c13)CCCCOC2 (single isomer, unassigned; enantiomer 1) [Example 110]
**Result** 26 µM

**Query** State the recorded EC50 for this entry: Cc1nn(C)c2c1-c1cccc3c(CCCOc4cccc5cc(F)ccc45)c(C(=O)O)n(c13)CCCCOC2 (racemic)
**Result** 9.64 µM

**Query** State the recorded EC50 for this entry: COc1ccc2c(CCCOc3cccc4ccccc34)c(C(=O)O)n3c2c1-c1c(nn(C)c1C)COCCCC3 (single isomer, unassigned; enantiomer 1) [Example 350]
**Result** > 33 µM

**Query** State the recorded EC50 for this entry: Cn1nc(COc2ccccc2)c2c1COCC=CCn1c(C(=O)O)c(CCCOc3cccc4ccccc34)c3cccc-2c31 (single isomer, unassigned) [Example 1-77]
**Result** > 33 µM

**Query** State the recorded EC50 for this entry: Cc1cc(OCCCc2c(C(=O)O)n3c4c(cccc24)-c2c(C)nn(C)c2COCCCC3)cc(C)c1Cl (single isomer, unassigned; enantiomer 1) [Example 010]
**Result** 18.6 µM

**Query** State the recorded EC50 for this entry: CN(C)Cc1nn(C)c2c1-c1cccc3c(CCCOc4cccc5ccccc45)c(C(=O)O)n(c13)CCCCOC2 (racemic)
**Result** > 33 µM

====

Collected EC50 values appear next to each entry.
# Test system: SUDHL10
# Experimental protocol: Induction of caspase-3/7 activity (Caspase-Glo 3/7), SUDHL10
# Format: cell-based
# Assay context: Homo sapiens, SU-DHL10, 3 h, caspase-3/7 induction, SUDHL10 cells, 3 h treatment; median

Example entries begin here.
CN1CCCCn2c(C(=O)O)c(CCCOc3cccc4ccccc34)c3cccc(c32)-c2c(CC(F)(F)F)nn(C)c2C1 (single isomer, unassigned) [Example 223] | 26.2 µM
CN1CCCn2c(C(=O)O)c(CCCOc3cccc4ccccc34)c3cccc(c32)-c2c(COc3ccccc3)nn(C)c2C1 (single isomer, unassigned) [Example 1-82] | > 33 µM
CCNCc1nn(C)c2c1-c1cccc3c(CCCOc4cccc5ccccc45)c(C(=O)O)n(c13)CCCCOC2 (racemic) | > 33 µM
CN1CCCCn2c(C(=O)O)c(CCCOc3cccc4ccccc34)c3cccc(c32)-c2cnn(C)c2C1 (racemic) | > 33 µM
Cn1nc(C(F)(F)F)c2c1COCCCCn1c(C(=O)O)c(CCCOc3cccc4ccccc34)c3cccc-2c31 (racemic) | 28.7 µM

**Query** State the recorded EC50 for this entry: Cc1cc(OCCCc2c(C(=O)O)n3c4c(cccc24)-c2c(C)nn(C)c2COCCC3)cc(C)c1Cl (racemic) [Example 013]
**Result** > 33 µM

====

Collected IC50 values appear next to each entry.
# Test system: SUDHL10
# Experimental protocol: Induction of cytotoxicity (CellTiter-Glo, 5 h), SUDHL10
# Assay context: Homo sapiens, SU-DHL10, 5 h, read-out: Cytotox SUDHL10 [M] (median), SUDHL10 cells, cytotoxicity induction, CellTiter-Glo, 5 h, median

Example entries begin here.
Cn1nc(CN2CCCC2=O)c2c1COCCCCn1c(C(=O)O)c(CCCOc3cccc4ccccc34)c3cccc-2c31 (racemic) [Example 328] | > 3.3e-05 M
Cn1nc(CN)c2c1COCCCCn1c(C(=O)O)c(CCCOc3cccc4ccccc34)c3cccc-2c31 (racemic) [Example 338] | > 3.3e-05 M
Cc1c2c(nn1C)COCCCCn1c(C(=O)O)c(CCCOc3cccc4cc(Cl)ccc34)c3cccc-2c31 (racemic) [Example 295] | 1.8e-05 M

**Query** State the recorded IC50 for this entry: CCc1nn(C)c2c1-c1cccc3c(CCCOc4cccc5cc(Cl)ccc45)c(C(=O)O)n(c13)CCCCOC2 (racemic) [Example 304]
**Result** > 3.3e-05 M

====

Collected log10 of IC50 values appear next to each entry.
# Tested on: SUDHL5
# Experimental protocol: Induction of cytotoxicity (CellTiter-Glo, 5 h), SUDHL5
# Assay context: read-out: Cytotox SUDHL5 [M] (median); SUDHL5 cells, cytotoxicity induction, CellTiter-Glo, 5 h incubation, median
Please note: log10 values; quantity IC50; unit M.

Cc1nn(C)c2c1-c1cccc3c(CCCOc4cccc5ccccc45)c(C(=O)O)n(c13)CCCN(c1ccc(N3CCOCC3)cc1)C2 (single isomer, unassigned; enantiomer 1) [Example 1-99] | -4.89
Cc1cc2c(OCCCc3c(C(=O)O)n4c5c(cccc35)-c3c(C)nn(C)c3COCCCC4)cccc2cc1F (single isomer, unassigned; enantiomer 1) [Example 050] | -5.35
Cc1cc2c(OCCCc3c(C(=O)O)n4c5c(cccc35)-c3c(C)nn(C)c3COCCCC4)cccc2cc1F (single isomer, unassigned; enantiomer 2) [Example 051] | -4.52

**Query** State the recorded log10 of IC50 for this entry: CCS(=O)(=O)N1CCN(c2ccc(N3CCCn4c(C(=O)O)c(CCCOc5cccc6ccccc56)c5cccc(c54)-c4c(C)nn(C)c4C3)cc2)CC1 (single isomer, unassigned; enantiomer 2)
**Result** -4.82
